Ref: paper PMC2808448

biological target: Sco3058 (Streptomyces coelicolor, UniProt Q93J45); test: ninhydrin-based dipeptidase assay, L-Leu-D-Ala substrate; format: biochemical
Sequence (Q93J45 1-400): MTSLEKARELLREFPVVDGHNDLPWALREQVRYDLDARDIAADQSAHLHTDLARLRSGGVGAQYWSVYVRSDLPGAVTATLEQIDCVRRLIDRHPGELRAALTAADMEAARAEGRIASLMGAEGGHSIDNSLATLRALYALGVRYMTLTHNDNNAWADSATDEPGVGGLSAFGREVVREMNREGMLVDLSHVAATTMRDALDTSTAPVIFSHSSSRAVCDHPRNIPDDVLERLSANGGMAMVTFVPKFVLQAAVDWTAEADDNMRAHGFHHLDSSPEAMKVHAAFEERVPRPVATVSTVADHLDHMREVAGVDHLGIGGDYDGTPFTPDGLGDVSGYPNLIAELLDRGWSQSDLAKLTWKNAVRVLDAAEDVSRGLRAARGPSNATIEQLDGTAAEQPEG
measurement_type: pKi
Give bare numbers, as −log10 of the molar value.

compound	measured_on	pKi
NC(Cc1ccc(O)cc1)P(=O)(O)CC(CC(=O)O)C(=O)O (racemic) [compound 3]	Sco3058 (Streptomyces coelicolor, UniProt Q93J45)	5.96

Next item in the queue.
*Q* Value wanted: pKi (Sco3058 (Streptomyces coelicolor, UniProt Q93J45)) of entry NC(Cc1ccccc1)P(=O)(O)CC(CC(=O)O)C(=O)O (racemic) [compound 2]
*A* 5.64

* * *

biological target: Sco3058 (Streptomyces coelicolor, UniProt Q93J45); assay: crystal structure at […] Å; type: biochemical
measurement_type: pKi
Numbers only, as −log10 of the molar value.

*Q* Data request, read-out pKi, for O=C(O)CC(O)(CC(=O)O)C(=O)O [citrate]
*A* 1.60
